experiment: yeast display, Sf9 membrane polyspecificity reagent, FACS + sequencing; frameworks hold sequencing errors
measure: polyreactivity (PSR sort gate)

Example entries begin here.
residue codes	polyreactivity (PSR sort gate)
QVQLEESGGGLVQAGGSLRLSCAASGRIFTANAMGWYRQAPGKERELVASISYRSGRTRYADSVKGRFTISRDNAKNTVYLQMNSLKPEDTAVYYCATDRGRRYDYWGQGTQVTVSS	high polyreactivity
QVQLVESGGGLVQAGGSLRLSCAASGRTFWRYAMGWYRQAPGKERELVARISSGGSTYYADSVKGRFTISRDNAKNTVYLQINSLKPEDTAVYYCAVLSRHRRVPWYRYNYWGQGTQVTVSS	low polyreactivity
QVQLVESGGGLVQAGGSLRLSCAASGRIFYSYAMGWYRQAPGKEREFVAAIRWSGGRTYYADSVKGRFTISRDNAKNTVYLQMNSLKPEDTAVYYCAAELYGNNFWDGTTGYDYWGQGTEVTVSS	low polyreactivity
QVQLVESGGGLVQAGGSLRLSCAASGSTFYKNAMGWYRQAPGKERELVAAITRSGGSTYYADSVKGRFTISRDNAKNTVYLQMNSLKPEDTAVYYCAYYPYGYDYWGQGTQVTVSS	high polyreactivity
QVQLVESGGGLVQAGGSLRLRCASSGITFTLNAMGWYRQAPGKERELVAAISGSGGRTYYADSVKGRFTISRDNAKNTVYLQMNSLKPEDTAVYYCAAAVLDRYTRYIWYIYDYWGQGTQVTVSS	high polyreactivity

Query block: Using the record for QVQLVESGGGLVQAGGSLRLTCAASGLTFEYYAMGWYRQAPGKERELVARISKSGVGTNYADSVKGRFTISRDHAKNTVYLQMNSLKPEDNAVYSCAARKYHYGYGYWGQGTQVTVSS , report its polyreactivity (PSR sort gate).
Result block: high polyreactivity

Query block: Using the record for QVQLVESGGGVVQAGGSLRLSCAASGSIFISNAMGWYRQAPGTERELVAAITLTGTSTYYADSVKGRFTISRDNAKNTVYLQMNSLKPEDTAVYYCAAEYYYIVTYDFGYWGQGTQVTVSS , report its polyreactivity (PSR sort gate).
Result block: low polyreactivity

Query block: Using the record for QVQLVESGGGLVQAGGSLRLSCAASGFIFQPNAMGWYRQAPGKERELVAVITWSGGSTYYADSVKGRFTISRDNAKNTVYLQMNSLKPEDTAVYYCAVDGAYDQKPTDLKGYYYWGQGTQVTVSS , report its polyreactivity (PSR sort gate).
Result block: low polyreactivity

Query block: Using the record for QVQLVESGGGLVQAGGSLRLSCAASGSIFADYAMGWYRQAPGKERELVAVITSGGRTNYADSVKGRFTISRDNAKNTVYLQMNSLKPEDTAVYYCDTRRYRYYAYRNYYYWGQGTQVTVSS , report its polyreactivity (PSR sort gate).
Result block: high polyreactivity

Query block: Using the record for QVQLVESGGGLVQAGGSLRLSCAASGSIFNRYAMGWYRQAPGKERELVAAITWNGGSTYYADSVKGRFTISRDNAKNTVYLQMNSLKPEDTAVYYCNKASLRGSYARYSYDYWGQGTQVTVSS , report its polyreactivity (PSR sort gate).
Result block: high polyreactivity

Query block: Using the record for QVQLKESGGGLVQSGGSLRLSCAASGNIVDADIMGWYRQAPGKERELVASITDGGSTNYADSVKGRFTISRDNAKNTVYLQMNSLKPEDTAVYYCAAIAYPDIPTYFDYDSEYFYWGQGTQVTVSS , report its polyreactivity (PSR sort gate).
Result block: low polyreactivity

Query block: Using the record for QVHLVESGAGLVQAGGSLRLSCASSGFTFKAYAMGWYRQAPGKERELVAAITKSGGRTFYADSVKGRFTISRDNAKNTVYLQMNSLKPEDTAVYYCAASYTVYYWGQGTKVTVSS , report its polyreactivity (PSR sort gate).
Result block: high polyreactivity
